Sourced from patent US9776965B2

Exercise: for every item that follows, state its recorded pIC50.
experimentalTarget: 11b-HSD1 (Homo sapiens)
Sequence (P28845 whole entry): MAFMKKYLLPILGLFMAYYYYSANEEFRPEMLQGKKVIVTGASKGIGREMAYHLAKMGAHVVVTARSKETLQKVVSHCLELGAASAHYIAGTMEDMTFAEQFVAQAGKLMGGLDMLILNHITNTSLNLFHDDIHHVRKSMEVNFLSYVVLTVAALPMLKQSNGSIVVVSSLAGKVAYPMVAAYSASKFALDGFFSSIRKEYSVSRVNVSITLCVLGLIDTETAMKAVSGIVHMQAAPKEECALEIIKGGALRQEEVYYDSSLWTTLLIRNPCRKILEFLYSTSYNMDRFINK
assayMethodText: Enzymatic assay, 11b-HSD1 dependent conversion of cortisone into cortisol (reductase activity)
experimentalConditions: recombinant protein, 2 μM cortisone, 45 min at 37 C; read-out: [C1] HSD1-prot Reduct Score
Method: The effects of compounds on 11b-HSD1 dependent conversion of cortisone into cortisol (reductase activity) was studied in a reaction mixture containing 30 mM Tris-HCl buffer pH 7.2, 180 μM NADPH, 1 mM EDTA, 2 μM cortisone, 1 μl drug and/or solvent and 11 μg recombinant protein in a final volume of 100 μl. All incubations were performed for 45 min at 37 C in a water bath. The reaction was stopped by adding 100 μl acetonitrile containing 20 μg corticosterone as internal standard. […]
pIC50: −log10 of the molar value.

Entry C[C@@H](c1ccccc1)N1CC[C@H](Cc2cccc(Cl)c2)C1=O : pIC50 on 11b-HSD1 (Homo sapiens) = 5.00 to 6.00

11b-HSD1 (Homo sapiens) pIC50 of C[C@@H](C[C@@H]1CCN([C@@H](C)c2ccccc2)C1=O)c1ccccc1 is > 6.00

Record Cc1ccccc1CC1CCN(CCc2ccccc2)C1=O (centres unmarked) / 11b-HSD1 (Homo sapiens), pIC50 recorded as < 5.00

Lab entry: 11b-HSD1 (Homo sapiens) assay, compound C[C@H](c1ccccc1)N1CC[C@@H](Cc2cccc(Cl)c2Cl)C1=O , pIC50 = < 5.00

Measured on 11b-HSD1 (Homo sapiens), O=C1C(Cc2ccc(F)cc2Cl)CCN1CCCc1ccccc1 (centres unmarked) has a documented pIC50 of 5.00 to 6.00

* * *

experimentalTarget: 11b-HSD1 (Mus musculus, UniProt P50172)
Construct: Fibroblasts were differentiated into adipocytes; endogenous in cells; host or cells: differentiated 3T3-L1 cells (ATCC-CL-173)
Sequence (P50172 whole entry): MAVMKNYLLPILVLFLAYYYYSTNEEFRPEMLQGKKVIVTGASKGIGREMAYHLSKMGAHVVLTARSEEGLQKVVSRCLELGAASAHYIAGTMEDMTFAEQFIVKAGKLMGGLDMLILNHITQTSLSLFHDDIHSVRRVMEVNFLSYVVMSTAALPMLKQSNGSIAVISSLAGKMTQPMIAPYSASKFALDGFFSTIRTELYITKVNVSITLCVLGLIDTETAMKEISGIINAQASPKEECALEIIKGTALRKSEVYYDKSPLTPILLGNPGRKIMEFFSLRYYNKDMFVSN
assayMethodText: Cellular assay, 11b-HSD1 activity in differentiated 3T3-L1 cells
Format: cell-based
experimentalConditions: 4 hour pre-incubation, read-out: [C2] HSD1 cellular 3T3-L1 Score
recordedEndpoint: IC50

// O=C1C(Cc2c(Cl)cccc2Cl)CCN1Cc1ccccc1 (centres unmarked) : IC50 value = < 1 µM

Reported IC50 ( C[C@H](c1ccccc1)N1CC[C@H](Cc2ccccc2Cl)C1=O ) = < 1 µM

Briefly, IC50 measured for C[C@@H](c1ccccc1)N1CC[C@@H](CCc2ccc(N(C)C)cc2)C1=O : 1 to 10 µM

Value of measured IC50 for the entry COc1cc(CC2CCN(CCc3ccccc3)C2=O)ccc1OCc1ccccc1 (centres unmarked) : 1 to 10 µM

// IC50 lookup, compound = C[C@H](c1ccccc1)[C@@H]1CCN([C@@H](C)c2ccccc2)C1=O , result: > 10 µM

According to the records, this compound C[C@@H](c1ccccc1)N1CC[C@H]([C@@](C)(O)c2ccc(CCBr)cc2)C1=O displays IC50 of < 1 µM

Briefly, IC50 measured for CCC(CC1(CC(CC)c2ccccc2)CCN([C@@H](C)c2ccccc2)C1=O)c1ccccc1 (mixture of isomers) : > 10 µM

Entry CC[C@@H](c1ccccc1)N1CC[C@H](Cc2c(Cl)cccc2Cl)C1=O — recorded IC50 = < 1 µM

* * *

experimentalTarget: 11b-HSD1 (Mus musculus, UniProt P50172)
Construct: Fibroblasts were differentiated into adipocytes; endogenous in cells
assayMethodText: Cellular assay, 11b-HSD1 activity in differentiated 3T3-L1 cells
experimentalConditions: 4 hour pre-incubation, read-out: [C2] HSD1 cellular 3T3-L1 Score
recordedEndpoint: IC50

COc1ccccc1CC1CCN(Cc2ccccc2)C1=O (stereo not drawn) has a reported IC50 of 1000 to 10000 nM

Sample COc1ccc(CC[C@@H]2CCN([C@@H](C)c3ccccc3)C2=O)cc1OC ; IC50 observed: > 10000 nM

Field IC50 (entry C[C@@H](c1ccccc1)N1CC[C@H](Cc2c(Cl)cccc2Cl)C1=O ) reads < 1000 nM

Entry C[C@@H](c1ccccc1)N1CC[C@@H](Cc2ccccc2Cl)C1=O ; IC50 = < 1000 nM

Kindly note the recorded IC50 for COc1cccc(C[C@@H]2CCN([C@H](C)c3ccccc3)C2=O)c1 , which is 1000 to 10000 nM

Just so you know, measured IC50 for C[C@@H](c1ccccc1)N1CC[C@@H](Cc2cc3c(cc2Cl)OCO3)C1=O came out at < 1000 nM

Entry COc1ccc(C[C@@H]2CCN([C@H](C)c3ccccc3)C2=O)cc1 — recorded IC50 = 1000 to 10000 nM

// IC50 lookup, molecule = C[C@H](c1ccccc1)N1CC[C@@H](Cc2ccccc2Cl)C1=O , result: < 1000 nM

IC50 measured on Cc1ccc(C[C@H]2CCN([C@@H](C)c3ccccc3)C2=O)cc1 = 1000 to 10000 nM

Consider O=C1C(Cc2cccc(Cl)c2Cl)CCN1Cc1ccccc1 (stereo not drawn) . Its measured IC50 is 1000 to 10000 nM

The recorded IC50 for entry Cc1ccccc1CC1CCN(CCCc2ccccc2)C1=O (stereo not drawn) equals 1000 to 10000 nM

IC50 measured on COc1ccc(C[C@H]2CCN([C@@H](C)c3ccccc3)C2=O)c(Cl)c1OC = < 1000 nM

response.value for C[C@@H](c1ccccc1)N1CC[C@@H](Cc2ccc3c(c2)OCO3)C1=O (field: IC50) = 1000 to 10000 nM

Looking up O=C1C(Cc2ccccc2Cl)CCN1Cc1ccccc1 (stereo not drawn) , I found its IC50 recorded as < 1000 nM

Memo: Cc1cccc(C[C@H]2CCN([C@@H](C)c3ccccc3)C2=O)c1 , reported IC50: 1000 to 10000 nM

// IC50 value for O=C1C(Cc2ccccc2Cl)CCN1CCc1ccccc1 (stereo not drawn) : < 1000 nM

Lab note: Cc1ccc(C[C@@H]2CCN([C@H](C)c3ccccc3)C2=O)cc1 gave IC50 of < 1000 nM

Value of measured IC50 for the entry C[C@H](c1ccccc1)N1CC[C@H](Cc2cccc(Cl)c2Cl)C1=O : 1000 to 10000 nM

The reported value for C[C@H](c1ccccc1)N1CC[C@@H](Cc2ccccc2C#N)C1=O in terms of IC50 is < 1000 nM

// field: IC50; key: O=C1C(Cc2ccccc2Cl)CCN1CCCc1ccccc1 (stereo not drawn) ; value = 1000 to 10000 nM

Given item COc1ccccc1C[C@H]1CCN([C@@H](C)c2ccccc2)C1=O , the value recorded as its IC50 is < 1000 nM

The recorded IC50 for CCCC1(Cc2ccccc2C)CCN([C@@H](C)c2ccccc2)C1=O (mixture of isomers) is > 10000 nM

The measured IC50 associated with Cc1ccc(C[C@H]2CCN([C@H](C)c3ccccc3)C2=O)cc1 reads 1000 to 10000 nM

# IC50 (molecule: C[C@@H](c1ccccc1)N1CC[C@@H](Cc2cccc(Cl)c2)C1=O ) is 1000 to 10000 nM

For this molecule ( CC[C@@H](C[C@H]1CCN([C@@H](C)c2ccccc2)C1=O)c1ccccc1 ), measured IC50 is > 10000 nM

Measured IC50 of Cc1cccc(C)c1C[C@H]1CCN([C@@H](C)c2ccccc2)C1=O : < 1000 nM

Per the records, this molecule ( C[C@@H](c1ccccc1)N1CC[C@@H](CCc2ccccc2)C1=O ) has IC50 equal to 1000 to 10000 nM

According to the records, this molecule O=C1C(Cc2c(Cl)cccc2Cl)CCN1CCc1ccc(Br)cc1 (stereo not drawn) displays IC50 of 1000 to 10000 nM

Form: molecule = COc1ccc(CCN2CCC(Cc3c(Cl)cccc3Cl)C2=O)cc1 (stereo not drawn) ; IC50 = 1000 to 10000 nM

So, C[C@@H](c1ccccc1)N1CC[C@H](Cc2ccccc2)C1=O ? Its IC50 was 1000 to 10000 nM

get_value(item= C[C@@H](c1ccccc1)N1CCC(C)(c2ccccc2)C1=O (stereo partly drawn) , readout=IC50) returns 1000 to 10000 nM

Record O=C1[C@@H](Cc2c(Cl)cccc2Cl)CCN1[C@H](CO)c1ccccc1 . Reported IC50: 1000 to 10000 nM

IC50 for C[C@@H](c1ccccc1)N1CC[C@H](Cc2ccc3c(c2)OCO3)C1=O is < 1000 nM

So for CC[C@H](C[C@H]1CCN([C@@H](C)c2ccccc2)C1=O)c1ccccc1 , the logged IC50 turned out to be < 1000 nM

IC50 measured on CC[C@@H](C[C@@H]1CCN([C@@H](C)c2ccccc2)C1=O)c1ccccc1 = < 1000 nM

For this molecule ( COc1ccc(C[C@@H]2CCN([C@@H](C)c3ccccc3)C2=O)c(Cl)c1OC ), measured IC50 is < 1000 nM
